Tested on: S. aureus
Assay: Standard dipped disc agar diffusion assay, S. aureus
Type: cell-based
Details: Staphylococcus aureus; 1 mg/ml, 0.5 in. disc
Recorded zone of inhibition at 1000 µg/mL, one value per entry.
I'd appreciate it if you wrote the number followed by its unit.

A selection of reference data follows.
- CCC1OC(=O)C(OC)CC2C=CC3C4OC2(C(C)=CC1C)C3C(O)C(C)C4OC(=O)c1ccc[nH]1 (stereo not shown) [Compound 32, 18-Deoxynargenicin A1]: 29 mm
- COC1CC2C=CC3C4OC2(C(C)=CC(C)C(C(C)=O)OC1=O)C3C(O)C(C)C4OC(=O)c1ccc[nH]1 (stereo not shown) [Compound 25, 18-Deoxy-18-oxonargenicin A1]: 35 mm
- COC1CC2C=CC3C4OC2(C(C)=CC(C)C(C(C)Cl)OC1=O)C3C(O)C(C)C4OC(=O)c1ccc[nH]1 (stereo not shown) [Compound 24, 18-Chloro-18-deoxynargenicin A1]: 29 mm

Consider the record given below.
Measured on S. aureus, COC1CC2C=CC3C4OC2(C(C)=CC(C)C(C(C)N=[N+]=[N-])OC1=O)C3C(O)C(C)C4OC(=O)c1ccc[nH]1 (stereo not shown) [Compound 29, 18-Azido-18-deoxynargenicin A1] has a documented zone of inhibition at 1000 µg/mL of 26 mm

Numbers sourced from patent US4448970A.
